Tested on: SNB-19 CNS
Assay: NCI tumour cell line growth inhibition, 48 h
quantity_kind: TGI (µM)
Reply with just the number (in µM).

Illustrative cases are given below, each with its answer.
[
  {
    "compound": "Nc1c2c(c(O)c3c1=C(CO)C=N3)=NCCS2=O (stereo unspecified)",
    "assay_result": 3.07
  },
  {
    "compound": "C[C@H](OC(=O)/C=C/c1ccc(O)c(O)c1)[C@H](C)OC(=O)/C=C/c1ccc(O)c(O)c1",
    "assay_result": 25.6
  }
]

What is its TGI for SNB-19 CNS? Entry: `O=c1c(Br)ccc(Br)cc1Br`
25.2

* * *

Tested on: HCC-2998 colon
Test: NCI tumour cell line growth inhibition, 48 h
quantity_kind: TGI

Illustrative cases are given below, each with its answer.
[
  {
    "compound": "COc1ccc2oc(=O)c(-c3nc4ccccc4s3)cc2c1",
    "quantity_kind": "TGI",
    "assay_result": "> 100 µM"
  },
  {
    "compound": "O=C1CSC2(CC(/C=C/c3ccccc3[N+](=O)[O-])=NN2c2cccc(S(=O)(=O)O)c2)N1c1nc2ccccc2s1 (stereo not given)",
    "quantity_kind": "TGI",
    "assay_result": "> 75 µM"
  },
  {
    "compound": "CN1CCN(C(=S)N(C(=O)c2ccc(Cl)cc2)C2CCCCC2)CC1",
    "quantity_kind": "TGI",
    "assay_result": "> 100 µM"
  },
  {
    "compound": "COc1ccc(-c2nn(C(=O)c3cc(OC)c(OC)c(OC)c3)c3cc(N)ccc23)cc1",
    "quantity_kind": "TGI",
    "assay_result": "3.79 µM"
  }
]

What is its TGI for HCC-2998 colon? Entry: `COc1ccc(OC/C(N=Cc2cccnc2)=N/NC(=O)c2ccncc2)cc1`
> 100 µM

What is its TGI for HCC-2998 colon? Entry: `CC/C(=C(/c1ccc(Cl)cc1)c1ccc(OCCCN(C)C)cc1)c1ccc(OC)cc1`
17.4 µM

What is its TGI for HCC-2998 colon? Entry: COc1ccc(-c2c3c(n(C4OC(COC(C)=O)C(OC(C)=O)C(OC(C)=O)C4OC(C)=O)c(=S)c2C#N)CCCC3)cc1 (stereo not given)
> 100 µM

What is its TGI for HCC-2998 colon? Entry: `O=C(O)COc1cccc2ccccc(=O)c12`
> 100 µM

What is its TGI for HCC-2998 colon? Entry: `O=C1/C=C/[C@@H](O)[C@@H]2C[C@@H](O)C[C@H]2/C=C/CCCCO1`
1.76 µM

What is its TGI for HCC-2998 colon? Entry: COc1ccccc1NC(=O)C(=O)C(C#N)CC(C)(C)C=O (stereo not given)
> 100 µM

* * *

Test system: A549 NSCLC
Experiment: NCI tumour cell line growth inhibition, 48 h
quantity_kind: GI50

Entry `C=CCOc1ccc2c(c1)CC[C@@H]1[C@@H]2CC[C@]2(C)C(=O)/C(=N/O)C[C@@H]12` : reported GI50 = ?
4.45 µM

Entry `CCCCCCOc1ccc(/C=N/Nc2cc(C)nc3ccc(Br)cc23)cc1` : reported GI50 = ?
1.78 µM

* * *

Quick list: TGI per entry.
Test system: T-47D breast
Assay: NCI tumour cell line growth inhibition, 48 h

Entry `Cc1cc(NS(=O)(=O)c2ccc(N=Nc3c(Nc4ccccc4)nn(-c4ccc(S(=O)(=O)Nc5ccncn5)cc4)c3C)cc2)no1` : reported TGI = ?
> 100 µM

Entry CC1(C)C(=O)C2(N)CCC1C2 (stereo unspecified) : reported TGI = ?
> 100 µM

Entry Nc1c2c(c(O)c3c1=C(CO)C=N3)=NCCS2=O (stereo unspecified) : reported TGI = ?
2.68 µM

Entry `CCOc1ccnc2c(OC)c(C)c3nc4ccccc4nc3c12` : reported TGI = ?
67 µM

Entry CCOC(=O)C1=CN(Cc2ccccc2)C2ON=C(c3ccc(Cl)cc3)C2C1 (stereo unspecified) : reported TGI = ?
15.2 µM

Entry `Nc1c(S(=O)(=O)O)cc2c(c1Cl)C(=O)c1ccccc1C2=O` : reported TGI = ?
> 100 µM

Entry `CCCCCC(=O)OC[n+]1ccc(-c2c(COC(=O)NC(C)C)c(COC(=O)NC(C)C)c3n2CCC3)cc1` : reported TGI = ?
> 100 µM

Entry COc1ccc(/C=C2/C(=O)C(c3ccccc3)N(c3ccccc3)C2=O)cc1OC (stereo unspecified) : reported TGI = ?
> 10 µM

Entry `COc1cc2c(cc1OC)-c1c(c3ccc([N+](=O)[O-])cc3c(=O)n1CCCBr)C2=O` : reported TGI = ?
> 100 µM

Entry `Cc1csc(CP(=O)(OC(C)C)OC(C)C)n1` : reported TGI = ?
> 100 µM

Entry `COc1ccc2c(c1)cn1c3ccc(OC)cc3[nH]c(=O)c21` : reported TGI = ?
2.61 µM
